Molecular target: T1, P6-AA-12HAA-E
T1 chain: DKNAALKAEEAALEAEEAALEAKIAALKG
Assay: two-hybrid library CCmax;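 note: natural log of median RNA to DNA barcode read ratio; higher means stronger binding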
Details: mean of both orientations
interaction score values for the binders below.

Some entries whose results are on file:
>  <binder>
DENAALEAKEAALKAKEAALKAEIAALEG [P5-AA-12HAA-E]

>  <interaction score>
-1.42

$$$$
>  <binder>
DENAALEAKLAALKAKLAALKAEIAALEG [P5-AA-12HAA-L]

>  <interaction score>
0.451

$$$$
>  <binder>
DENAALEAKHAALKAKHAALKAEIAALEG [P5-AA-12HAA-H]

>  <interaction score>
-1.49

$$$$

Okay, now this binder:
# input Name the recorded interaction score for DENAALEAKDAALKAKDAALKAEIAALEG [P5-AA-12HAA-D] .
# output -1.97
